- System: NCI-H358
- method.notes: Antiproliferative activity against human NCI-H358 cells harboring KRAS G12C mutant assessed as inhibition of cell proliferation incubated for 48 hrs by MTT assay
- Format: functional, cell-based
- condition.context: NCI-H358, 48 h
IC50 reference

Query :: Annotate the compound "C=CC(=O)N1CCN(c2nc(=O)n(-c3ccc(C(=O)NCc4cn(CCOCCOCCOCCOCC(=O)N[C@H](C(=O)N5C[C@H](O)C[C@H]5C(=O)NCc5ccc(-c6scnc6C)cc5)C(C)(C)C)nn4)cc3C(C)C)c3cc(-c4ccccc4Cl)c(Cl)cc23)[C@@H](C)C1" with its measured IC50.
Result :: 17.1 µM

Query :: Annotate the compound C=CC(=O)N1CCN(c2nc(=O)n(-c3ccc(C(=O)NCCCC(=O)Nc4cccc5c4CN(C4CCC(=O)NC4=O)C5=O)cc3C(C)C)c3cc(-c4ccccc4Cl)c(Cl)cc23)[C@@H](C)C1 (stereo partly specified) with its measured IC50.
Result :: 22.7 µM

Query :: Annotate the compound "C=CC(=O)N1CCN(c2nc(=O)n(-c3ccc(C(=O)O)cc3C(C)C)c3cc(-c4ccccc4Cl)c(Cl)cc23)[C@@H](C)C1" with its measured IC50.
Result :: > 10 µM

Query :: Annotate the compound "C=CC(=O)N1CCN(c2nc(=O)n(-c3ccc(C(=O)NCCOCCOCCOCCOCC(=O)N[C@H](C(=O)N4C[C@H](O)C[C@H]4C(=O)NCc4ccc(-c5scnc5C)cc4)C(C)(C)C)cc3C(C)C)c3cc(-c4ccccc4Cl)c(Cl)cc23)[C@@H](C)C1" with its measured IC50.
Result :: 11.1 µM

Query :: Annotate the compound "C=CC(=O)N1CCN(c2nc(=O)n(-c3ccccc3C(C)C)c3cc(-c4ccccc4Cl)c(Cl)cc23)[C@@H](C)C1" with its measured IC50.
Result :: 1.48 µM

Now let's try a different one.
Query :: Annotate the compound "C=CC(=O)N1CCN(c2nc(=O)n(-c3ccc(C(=O)NCCCCCC(=O)N[C@H](C(=O)N4C[C@H](O)C[C@H]4C(=O)NCc4ccc(-c5scnc5C)cc4)C(C)(C)C)cc3C(C)C)c3cc(-c4ccccc4Cl)c(Cl)cc23)[C@@H](C)C1" with its measured IC50.
Result :: 14.2 µM
